// provenance: patent US12043602B2

system: BxPC-3 (WT) pancreatic tumor cells; experiment: CyQUANT proliferation assay; format: cell-based; conditions: Homo sapiens, BXPC-3; Table 11, pancreatic; read-out: IC50 (μM) BxPC-3 (WT)
I'd be grateful if you could share measured IC50 for these entries.
Give the value in µM but do not write µM after it.

Quick one: IC50 for COc1ccc([C@@H](C)N(CC=C(c2ccccc2)c2ccccc2)CCCN2CCN(C)CC2)cc1 ?
5.3

Find the recorded IC50 belonging to COc1ccc([C@@H](C)N(CC=C(c2ccccc2)c2ccccc2)CCN2CCN(C)CC2)cc1 and report it.
5.7

Recorded IC50 of CC(NCCC(c1ccccc1)c1ccccc1)c1ccccc1 (stereo not drawn) , please.
28.6
